# protocolSummary: Toxicity in ip dosed albino mouse assessed as mortality after 24 hrs
# Assay type: organism-based
# conditions: in vivo

# molecule, unit, LD50 at 24 h
rows = [
    ("CCOC(=O)Cc1nc(N)n(C(=O)c2ccc(Br)cc2)n1", "mg/kg", 120),
    ("CCOC(=O)Cc1nc(N)n(C(=O)c2ccc([N+](=O)[O-])cc2)n1", "mg/kg", 90),
    ("COc1ccc2c(c1)c(CC(=O)O)c(C)n2C(=O)c1ccc(Cl)cc1 [INDOMETHACIN]", "mg/kg", 50),
    ("CCOC(=O)Cc1nc(N)n(C(=O)c2ccc(Cl)cc2)n1", "mg/kg", 130),
]
